Data origin: ChEMBL document CHEMBL4339231

- Test system: UniProtKB P00918

- Cpd smiles: "O=C(/C=C(\\O)C(=O)O)/C=C/c1ccc(NC(=O)c2cccc3ccccc23)cc1"
  Endpoint unit: "nM"
  Ki: 2580

###

- System: MG-63
- Experimental details: Antiproliferative activity against human MG63 cells assessed as reduction in cell viability incubated for 72 hrs by erythrosine B dye vital staining assay
- Format: functional, cell-based
- Test context: MG-63, 72 h
pIC50: −log10 of the molar value.
Measured endpoint: pIC50

- Cpd smiles: "CCOC(=O)/C(O)=C/C(=O)/C=C/c1ccc(NC(=O)c2cccc3ccccc23)cc1"
  Measured endpoint: "pIC50"
  Result: 4.83
- Cpd smiles: "CCOC(=O)/C(O)=C/C(=O)/C=C/c1ccc(NC(=O)c2ccc3ccccc3c2)cc1"
  Measured endpoint: "pIC50"
  Result: 4.34
